assay: soluble on expression in E. coli; label from the status in PepcDB or PDB records
reported endpoint: soluble on expression in E. coli

Use the examples below as a reference point.
MSRSRQPPLVTGISPNEGIPWTKVTIRGENLGTGPTDLIGLTICGHNCLLTAEWMSASKIVCRVGQAKNDKGDIIVTTKSGGRGTSTVSFKLLKPEKIG : soluble
MAHHHHHHMSETSACPLNDFFDIDEENNLDEIKKEEKDVFSGNFLSYIYNQFEFCCINFFDELKKKDKRKNITLKKNYSDGYSKNDNGQCYYNVFDKILKKDVDTIKEVSLHSIYFNPHADWCECAHEFNLELNHEEAEFCIFNFFLKMYRYEERNKDLLLSILLECLYSKKDMKKAFHIQKENLKFLKEIKNIETSNFKESLNELINIIENTNFIQFNANEKKDMQKYYFKLYIIIKIKYPYGIYIFNCDDVYDIVVIDCNTFMQNKPKIMSFLSLRKFISFLNNIYSININEENIYDSFPIIVYESKECYHLSHSHLPLNLTACTPKEKKKNSVKNHLNQSGNENENENKD : not soluble
SAEEPEPDLGVAEGSEDQALEMPSWKAPEDIDPQPGSYEIRHYGPAKWVSTCVESLDWDSAIQTGFTKLNGYIQGKNEKEMKIKLTAPVTSYVEPGSSPFSLLMDSPVAKRIKNNF : soluble
GSMPTTCGFPNCKFRSRYRGLEDNRHFYRIPKRPLILRQRWLTAIGRTEETVVSQLRICSAHFEGGEKKEGDIPVPDPTVDKQIKIELPPK : soluble
MIIYFIGTGGSEGIPVHLCDCNTCNEARKFRFAQRRPSTLAVIGENGEVILFDVGTDIREFLNVPLDAIFLTHWHHDHIYGLYKLRWIARETNLYAPEGHADALILQDPKNLRPKIIKAGEKIRIGDIKVTSVKLNHQIETLGYIIEEDGKRVAILYDTKGLPPETREYLEDISPLRVAIVDATYPPGFVDPYHNNVNEAVEMSIDIAERIVLSHISHKNLPFLKLVNYTRKMWGGKVLVAYDGMVFYV : soluble

Could you tell me soluble on expression in E. coli for each of these sequences? They are listed below.
1. MHDALRAYIEKYASEKISDADFEEVKKAFTFKRYKKGQFLLQEGEVSKYTAFVLKGSMRQYSVDAKGTEHIIHFGIENWWVGDRESSTMLTPSNYNIDAIEDTEVLLTTSEDLQQLTAALPVIGKMVNTMNQRNFIASQKRIHDALSLTAEERYLELLKNHPDFLQRFPQTMLASYLGITAETYSRIRKKALK
2. MGSDKIHHHHHHVIEVIRQRVLPHYGLEGNAAKVSPLGNGHINDTFLVTWDEGSMVLQRLNTSVFQAPWTLVENAELISRHLGEKEGKDYELKVVSPKTTAEGDLGIDLGEAGFWRAIRYLKHSNSIDVVGSEAQAEQAARAFGHFARALCDFDATRIGDVIPKFHFLPGRLAALEQAAADNKAGRLDTCREWVDFALCQRGLLDELAALEPKLPLRVCHNDTKINNMLFDKRDDSAMAIIDLDTCMKGHLMYDFGDMVRTFTSPEAEDSTALDKVRVRPEIFAAICRGYLAELGDVLEAAERESLWLGARIMCLMIGVRFLTDYLNGDLYFHVHREGHNLDRAANQFTLYQSLLTQADRLKPCIF

not soluble
not soluble

* * *

assay: soluble on expression in E. coli; label from the status in PepcDB or PDB records
reported endpoint: soluble on expression in E. coli

Use the examples below as a reference point.
MGSDKIHHHHHHMDQQKKIQILKDLVNIDSTNGHEEQVANYLQKLLAEHGIESEKVQYDLDRASLVSEIGSSNEKVLAFSGHMDVVDAGDVSKWKFPPFEATEHEGKLYGRGATDMKSGLAAMVIAMIELHEEKQKLNGKIRLLATVGEEIGELGAEQLTQKGYADDLDGLIIGEPSGHRIVYAHKGSINYTVKSTGKNAHSSMPEFGVNAIDNLLLFYNEVEKFVKSIDATNEILGDFIHNVTVIDGGNQVNSIPEKAQLQGNIRSIPEMDNETVKQVLVKIINKLNKQENVNLELIFDYDKQPVFSDKNSDLVHIAKSVASDIVKEEIPLLGISGTTDAAEFTKAKKEFPVIIFGPGNETPHQVNENVSIGNYLEMVDVYKRIATEFLS : not soluble
MRAPEESLREVLARFPQVQAAFLFGSRAEGRARADSDWDLALLLSPEEPDPTLEVLGALVEAGLERVDLVLLHRAPPLLAFLAVKGKPVFLREGFDLGSYVSRVAREWWDTEPLLRVQREALTLKRRWLDPS : soluble
MTIKVGINGFGRIGRIVFRAAQKRSDIEIVAINDLLDADYMAYMLKYDSTHGRFDGTVEVKDGHLIVNGKKIRVTAERDPANLKWDEVGVDVVAEATGLFLTDETARKHITAGAKKVVMTGPSKDNTPMFVKGANFDKYAGQDIVSNASCTTNCLAPLAKVINDNFGIIEGLMTTVHATTATQKTVDGPSHKDWRGGRGASQNIIPSSTGAAKAVGKVLPELNGKLTGMAFRVPTPNVSVVDLTVRLEKAATYEQIKAAVKAAAEGEMKGVLGYTEDDVVSTDFNGEVCTSVFDAKAGIALNDNFVKLVSWYDNETGYSNKVLDLIAHISK : soluble
MRWTKEELDRYHRQMILPQVGPEGQERLKRASVVVVGAGGLGVPVLQYLVAARVGRVGVVEMDRVEVSDLHRQVLYTTEDVGEPKALVAQKRLQALNPLVRVEAYPVRLTSENALEILRPYDLVVDASDNFPTRYLVNDAAVLLGKPLVFGAIYQFDGQGTVFHHPTLHGEMGPCYRCLFPKPPPPGAVPSCAEAGVFGVLPAVVGSLMAAEALKVLLGIGKPLAGHLLLYDALEAGFRKLTVRRNPRCPVCGDEPTQRELVDYEAFCGLG : soluble
MVLLLRYRSLTINLTPLIPKSQKFHTLQSFRNPNFISIPKISASTNNPTTTTNRSISDATKFAKSVLFIPPGVEIEELTDDMVLPGSNIVIGPFAGHSQIKEVEFVKSSARARDCPKDDRPEIAILGRSNVGKSSLINCLVRKKEVALTSKKPGKTQLINHFLVNKSWYIVDLPGYGFAKVSDAAKTDWSAFTKGYFLNRDSLVCVLLLIDASVPPQKIDLDCANWLGRNNVPMTFVFTKCDKMKATKGKRPDENIKAFQQIIRENFKVHPPWILTSSVSGLGRDELLLHMSQLRNYWDQ : not soluble
MSEQQPNLRERRRSETRRLVQAHAVRLFTDHGYDAVTVADVAEAAGVSAMTVYRHFPTKEDLVLIDQPAQLIAEHVAASSAAQPLVRRVGSALIDAATNWTGGNGDEQAANERFLLDCLRLMVSTPALRARHLDSQYALQQAIVDALGDDATGPDAAFRAQAATSACIAAMHTALTRWVEDDGHTKLPDLIARALTASFGDDAVATRRKG : not soluble
MSLLGTGYLPDGTHMPGANPNLNIAAFLKENHIDLHTTVYPGGGLDPYTSVEFLNIVSKHCKTVFSNANEVLNTIPNSIYVPGIINTEFYHYNQKVSTKPIQMIFAAHNAERKGFPLLAQAFNKLDDQFHLHIVGNWENSLHLLTNNNYTFWGMLDLEKLKQLYEQSHVFISCSTKDKFAIDGFPTTAAADAMATGCILVSTNHRNDNRILKPGEDYLKIEADSNSILSNLFWIKMNFEKALEIGKSGAIKMDKYFNYKTNVNFKLSHIF : not soluble
HITHKLLIPAWDGIVLEGLSVKERKTTNNTVVLALIGHFQTEHHYLNTSFHEFQELFGTELVLINHRNYSNRSNKFANSAEEIARDVLAFAKHFRQKNKKIVLYGMCGGAAHMILAA : not soluble

Could you tell me soluble on expression in E. coli for each of these sequences? They are listed below.
1. MGSDKIHHHHHHMERVHVDIRQLQFFAEIVRYGSFTKAAERLHVAQPAVSMAMKKLEEELDLILFNRQERRISLTAEGEIFLRHAEKILDEVKSAETEMEELRGLAKGEVRVGIPPMMSAYFFPEIIRDFSNSYPDLHLTVSGEGASKIQKMIIDGELDMGVVAGASFPETLEVRRFLREEVIVCVPRSHPLASRGSLTLHEFARHPLIFYREGYYLRELILDVLRGAGLSPTIRFETNLYTLVKSLVQKGMGISVFLRMVVAEDDDLTAISLDPPLFLDLLIAWKKHGYLSRANRAFADYLLEKGSSAAL
2. MTGSNSHITILTLNINGLNSAIKRHRLASWIKSQDPSVCCIQETHLTCRDTHRLKIKGWRKIYQANGKQKKAGVAILVSDKTDFKPTKIKRDKEGHYIMVKGSIQQEELTILNIYAPNTGAPRFIKQVLSDLQRDLDSHTLIMGDFNTPLSTLDRSTRQKVNKDTQELNSALHQADLIDIYRTLHPKSTEYTYVRVRDGHVSQSKIDHIVGSKALLSKCKRTEIITNYLSDHSAIKLELR
3. MDLSTIKVFEQKLELHREMPMKVVKKELHFSTKGEIDLVDITREVELFVAESGISKGQVLIFVPGATGAVVAIEHEEGLLEDFKKILKEIVPKEKPYLHNRFDDNAHSHIRATLLGPSLVFPIVDGELVRGTWQQIFFVELDTRPRKRRILLQAIGE

["not soluble", "soluble", "soluble"]
